experiment: Inhibition of Bacillus thermoproteolyticus thermolysin using Mca-Arg-Pro-Pro-Gly-Phe-Ser-Ala-Phe-Lys-(Dnp)-OH as substrate after 1 hr by fluorescence assay in presence of Brij-35
quantity: IC50 (µM)
Entry rule: numbers only, all in µM.

Here are 7 compounds together with their reported answers.
Recorded result, NS(=O)(=O)c1ccc(CCNC(=O)CN(CC(=O)NO)S(=O)(=O)c2ccc(Oc3ccccc3)cc2)cc1 , IC50: 160

Recorded result, COc1ccc(S(=O)(=O)N(CC(=O)O)CC(=O)NO)cc1 , IC50: 270

Recorded result, O=C(O)CN(CC(=O)NO)Cc1ccc([N+](=O)[O-])cc1 , IC50: 755

Recorded result, COc1ccc(S(=O)(=O)N(CC(=O)NO)CC(=O)NCCc2ccc(S(N)(=O)=O)cc2)cc1 , IC50: 164

Recorded result, O=C(O)CN(CC(=O)NO)S(=O)(=O)c1ccc(Oc2ccccc2)cc1 , IC50: 114

Recorded result, O=C(CN(CC(=O)NCCCN1CCN(c2ccccc2)CC1)Cc1ccccc1)NO , IC50: 8

Recorded result, COc1ccc(S(=O)(=O)N(CC(=O)O)CC(=O)NCCc2ccc(S(N)(=O)=O)cc2)cc1 , IC50: 637

In the following, a different compound is considered.
Recorded result, O=C(O)CN(CC(=O)NO)Cc1ccc(Oc2ccccc2)cc1 , IC50: 524

---

molecular target: Elastase (Pseudomonas aeruginosa (strain ATCC 15692 / PAO1 / 1C / PRS 101 / LMG12228), UniProt P14756); assay: Inhibition of Pseudomonas aeruginosa pseudolysin using Mca-Arg-Pro-Pro-Gly-Phe-Ser-Ala-Phe-Lys-(Dnp)-OH as substrate after 1 hr by fluorescence assay in presence of Brij-35
Sequence (P14756 whole entry): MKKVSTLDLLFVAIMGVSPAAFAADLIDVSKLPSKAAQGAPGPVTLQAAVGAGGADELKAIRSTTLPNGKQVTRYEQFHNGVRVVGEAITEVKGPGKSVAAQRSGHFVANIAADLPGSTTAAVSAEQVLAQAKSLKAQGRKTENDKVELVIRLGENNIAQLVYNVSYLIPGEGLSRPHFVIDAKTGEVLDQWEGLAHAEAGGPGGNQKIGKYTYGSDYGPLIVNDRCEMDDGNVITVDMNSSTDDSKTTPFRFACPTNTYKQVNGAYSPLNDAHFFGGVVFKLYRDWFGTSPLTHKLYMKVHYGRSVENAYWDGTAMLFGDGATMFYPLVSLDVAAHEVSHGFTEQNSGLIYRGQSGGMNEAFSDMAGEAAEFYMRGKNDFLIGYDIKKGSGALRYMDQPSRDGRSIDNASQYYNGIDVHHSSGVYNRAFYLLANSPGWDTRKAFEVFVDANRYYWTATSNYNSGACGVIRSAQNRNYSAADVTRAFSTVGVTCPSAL
pIC50 overview
Notebook: values listed as pIC50 are -log10 of the concentration (mol/L).

Recorded result, O=C(CN(CC(=O)NCCCN1CCN(c2ccccc2)CC1)Cc1ccccc1)NO , pIC50: 5.55

Recorded result, NS(=O)(=O)c1ccc(CCNC(=O)CN(CC(=O)NO)S(=O)(=O)c2ccc(Oc3ccccc3)cc2)cc1 , pIC50: 3.56

Recorded result, O=C(O)CN(CC(=O)NO)S(=O)(=O)c1ccc(Oc2ccccc2)cc1 , pIC50: 4.34

Recorded result, CC(C)[C@H](C(=O)NO)N(CC(=O)O)S(=O)(=O)c1ccc(Oc2ccccc2)cc1 , pIC50: 3.47

Recorded result, O=C(O)CN(CC(=O)NO)S(=O)(=O)c1ccc(-c2ccccc2)cc1 , pIC50: 3.62

Next:
Recorded result, COc1ccc(S(=O)(=O)N(CC(=O)O)CC(=O)NO)cc1 , pIC50: 3.82

Recorded result, O=C(O)CN(CC(=O)NO)Cc1ccc(Oc2ccccc2)cc1 , pIC50: 3.37

Recorded result, COc1ccc(S(=O)(=O)N(CC(=O)NO)CC(=O)NCCc2ccc(S(N)(=O)=O)cc2)cc1 , pIC50: 4.48

---

IC50 overview
experiment: Inhibition of Bacillus thermoproteolyticus thermolysin using Mca-Arg-Pro-Pro-Gly-Phe-Ser-Ala-Phe-Lys-(Dnp)-OH as substrate after 1 hr by fluorescence assay in presence of Brij-35
Entry rule: numbers only, all in µM.

Recorded result, O=C(O)CN(CC(=O)NO)S(=O)(=O)c1ccc(-c2ccccc2)cc1 , IC50: 440

Recorded result, NS(=O)(=O)c1ccc(CCNC(=O)CN(CC(=O)NO)Cc2ccccc2)cc1 , IC50: 12

Next:
Recorded result, NS(=O)(=O)c1ccc(CCNC(=O)CN(CC(=O)NO)S(=O)(=O)c2ccc(-c3ccccc3)cc2)cc1 , IC50: 67
